Reference source for all entries: patent US11208386B2

Target: PAD2 (Homo sapiens)
Construct: made in house
Sequence (Q9Y2J8 whole entry): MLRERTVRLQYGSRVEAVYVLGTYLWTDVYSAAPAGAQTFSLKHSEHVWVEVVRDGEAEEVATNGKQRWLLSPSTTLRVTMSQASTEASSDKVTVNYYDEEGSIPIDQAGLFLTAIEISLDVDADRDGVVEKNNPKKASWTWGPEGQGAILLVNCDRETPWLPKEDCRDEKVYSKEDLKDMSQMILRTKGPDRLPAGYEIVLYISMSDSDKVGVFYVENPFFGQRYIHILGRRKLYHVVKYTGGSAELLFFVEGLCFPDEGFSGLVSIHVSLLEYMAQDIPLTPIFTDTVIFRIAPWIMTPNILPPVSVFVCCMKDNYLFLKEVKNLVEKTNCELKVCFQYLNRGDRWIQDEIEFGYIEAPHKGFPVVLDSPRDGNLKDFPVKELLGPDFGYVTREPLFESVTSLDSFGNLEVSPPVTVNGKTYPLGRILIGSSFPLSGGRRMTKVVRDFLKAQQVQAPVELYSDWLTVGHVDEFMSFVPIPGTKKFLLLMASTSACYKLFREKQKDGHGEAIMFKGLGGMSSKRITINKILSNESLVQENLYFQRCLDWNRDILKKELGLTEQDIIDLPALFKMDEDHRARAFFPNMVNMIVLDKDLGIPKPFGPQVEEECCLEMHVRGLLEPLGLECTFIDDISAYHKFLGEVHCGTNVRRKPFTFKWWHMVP
Assay: Inactivation kinetics, PAD2
Format: biochemical
Details: kinact/KI relative to least inhibited isozyme (1.0)
Overview of recorded Fold PAD2 Selectivity for various compounds
Response body: numeric value in fold, unit text excluded.

Worked examples, 3 compounds total:
**Q:** State its Fold PAD2 Selectivity for this compound: COc1cccc2c1nc([C@H](CCCNC(=N)CF)NC(=O)c1cccc3c1C(=O)N(C)C3)n2C
**A:** 106

**Q:** Note Fold PAD2 Selectivity for the compound shown: CCN1Cc2cccc(C(=O)N[C@@H](CCCNC(=N)CF)c3nc4c(OC)cccc4[nH]3)c2C1=O
**A:** 32

**Q:** Specify Fold PAD2 Selectivity for N=C(CF)NCCC[C@H](NC(=O)c1ccc2ccccc2c1)c1nc2ccccc2[nH]1 and stop.
**A:** 1.0

***
**Q:** Determine from records and report Fold PAD2 Selectivity for CCN1Cc2cccc(C(=O)N[C@@H](CCCNC(=N)CCl)c3nc4cc(OC)ccc4[nH]3)c2C1=O
**A:** 9.1
